Origin of values: PubChem BioAssay AID720706

assay: GFP drop in mixed WT/humanized-ribosome E. coli culture – GFP/RFP fluorescence, OD600, single point, bacterial rRNA inhibitor project, primary screen (AID 720706); details: E. coli WT GFP vs humanized-ribosome RFP mutants, 24 h; measured here: OD600 growth, DMSO median 0, no signal -100
The whole screen tested about 350,000 compounds, of which about 5,500 (1.6%) were called active. For the sample, actives were picked, then their nearest neighbours and some compounds at random.
The following molecules are listed with their measured OD600 change values.

The cases that follow already have their OD600 change on record.
| STRUCTURE | RESULT |
| --- | --- |
| O=[N+]([O-])c1cccc(/C=N/Nc2ncc(Br)cn2)c1 | 23.4% |
| COC(=O)C[C@@H]1C[C@H]2c3cc(NC(=O)NC4CCCC4)ccc3O[C@H]2[C@H](CO)O1 | -2.88% |
| COc1ccccc1OCCNc1cc(N2CCOCC2)ccc1[N+](=O)[O-] | -18.1% |
| CCCN(C)C[C@H]1OCCCC[C@H](C)Oc2ccc(NS(=O)(=O)c3ccc(C)cc3)cc2C(=O)N([C@@H](C)CO)C[C@H]1C | -1.7% |
| CC(=O)Nc1ccc(S(=O)(=O)N2CCN(c3ccc([N+](=O)[O-])c(NCCN4CCOCC4)c3)CC2)cc1 | 3% |
| O=[N+]([O-])c1cc(Br)c(O)c(/C=N/Nc2nc3ccccc3s2)c1 | -18.1% |
| COc1ccc(CCNc2cc(N3CCN(C(=O)c4ccccc4OC)CC3)ccc2[N+](=O)[O-])cc1OC | -0.295% |
| COCC(=O)Nc1ccc2c(c1)C(=O)N(C)C[C@@H](OC)[C@@H](C)CN(CC1CCCCC1)[C@@H](C)CO2 | 5.47% |

# evaluate next
Req: Given COc1cccc(CN(C)CC(=O)NCc2ccccc2Cl)c1OC , state its recorded OD600 change.
Resp: -20.5%
